- Tested on: KRas wild type
- assay-protocol: Ras GTP binding domain inhibition assay (Cy3-GTP/Cy5-GTP competition)
- Design: species or system human
- particulars: 20 μM; with SOS
- Text: The following method was developed as specific assay for the following proteins: KRas wild type, KRas Q61H mutant, KRas G12C mutant, KRas G12D mutant, HRas wild type, Rac-1, and Rho-A. […] The small GTPases proteins: KRas wild type. KRas Q61H mutant, KRas G12C mutant, KRas G12D mutants, HRas wild type, Rac-1, and Rho-A were expressed as His-tagged proteins. In addition, the Guanosine nucleotide Exchange Factor (GEF) Sos protein (residues 556-1049) was expressed as a His-tagged protein. […]
attribute-measured: KRas wild type + SOS: % inh.

Worked cases, KRas wild type + SOS: % inh. given:
>  <compound>
Oc1nc(-c2ncc3n2CCCC3)nc2c(-c3ccccn3)csc12 [drawing 833]

>  <attribute-measured>
KRas wild type + SOS: % inh.

>  <assay-value>
B (26-50% inhibition)

$$$$
>  <compound>
COc1c(O)nc(-c2ccccn2)nc1Oc1ccc2ncccc2c1 [drawing 804]

>  <attribute-measured>
KRas wild type + SOS: % inh.

>  <assay-value>
B (26-50% inhibition)

$$$$
>  <compound>
COc1ccc(-c2sc3nc(-c4nccn4C)nc(N4CCC(OC)C4)c3c2-c2ccccc2)cn1.Cl (centres unmarked)

>  <attribute-measured>
KRas wild type + SOS: % inh.

>  <assay-value>
D (76-100% inhibition)

$$$$
>  <compound>
Oc1nc(-c2nccn2Cc2ccccn2)nc2c(-c3ccccn3)csc12 [drawing 851]

>  <attribute-measured>
KRas wild type + SOS: % inh.

>  <assay-value>
C (51-75% inhibition)

$$$$
>  <compound>
COCCn1cc(Nc2nc(-c3ccccn3)nc(OC)c2OC)cn1 [drawing 793]

>  <attribute-measured>
KRas wild type + SOS: % inh.

>  <assay-value>
A (1-25% inhibition)

$$$$

*Q* Answer briefly: KRas wild type + SOS: % inh. recorded on KRas wild type for COCCNc1nc(-c2nccn2C)nc2sc(-c3cc(OC)ccc3Cl)c(-c3ccccc3)c12 [drawing 871]
*A* A (1-25% inhibition)

*Q* Answer briefly: KRas wild type + SOS: % inh. recorded on KRas wild type for COCCCNc1nc(-c2nccn2C)nc2sc(-c3ccn(C)n3)c(-c3ccc(OC)cc3)c12 [drawing 870]
*A* 0 (0% inhibition)

*Q* Answer briefly: KRas wild type + SOS: % inh. recorded on KRas wild type for COCCNc1nc(-c2nccn2C)nc2sc(-c3cccc(OC)c3)c(-c3ccc(OC)cc3)c12 [drawing 875]
*A* D (76-100% inhibition)

*Q* Answer briefly: KRas wild type + SOS: % inh. recorded on KRas wild type for COC(=O)c1nc(C2NCCN2C)nc(O)c1O (centres unmarked)
*A* B (26-50% inhibition)

*Q* Answer briefly: KRas wild type + SOS: % inh. recorded on KRas wild type for COc1ccc(Oc2nc(-c3ccccn3)nc(O)c2OC)cc1 [drawing 815]
*A* B (26-50% inhibition)

*Q* Answer briefly: KRas wild type + SOS: % inh. recorded on KRas wild type for COc1cc(-c2sc3nc(-c4nccn4C)nc(N4CCC(OC)C4)c3c2-c2ccccc2)ccn1.Cl (centres unmarked)
*A* C (51-75% inhibition)

*Q* Answer briefly: KRas wild type + SOS: % inh. recorded on KRas wild type for Cc1cc(Cn2ccnc2-c2nc(O)c3scc(-c4ccccn4)c3n2)on1 [drawing 846]
*A* B (26-50% inhibition)

*Q* Answer briefly: KRas wild type + SOS: % inh. recorded on KRas wild type for Cn1ccc(-c2sc3nc(-c4nccn4C)nc(N4CCC5(CCOC5)C4)c3c2-c2ccccc2)n1 (centres unmarked) [drawing 857]
*A* A (1-25% inhibition)

*Q* Answer briefly: KRas wild type + SOS: % inh. recorded on KRas wild type for O=C(c1nc(-c2ccccn2)nc(O)c1O)N1CCOCC1 [drawing 800]
*A* A (1-25% inhibition)

Source listed as patent US20250296938A1.
